Can you tell me TGI for the items I'm about to list?
# Test system: CCRF-CEM leukemia
# measurement_notes: NCI tumour cell line growth inhibition, 48 h

Quick note, TGI for Cc1[nH]c2ccccc2c1/C=N/NC(=O)c1cccc(I)c1 landed at 63.2 µM

TGI reading for CC(=O)O[C@H]1C[C@@H](OC(C)=O)[C@@](C)(O)[C@@H]2[C@@H](OC(C)=O)[C@@]3(O)[C@H](/C=C(/CO)[C@H]4O[C@H]4[C@@H](OC(C)=O)[C@@]12C)OC(=O)[C@@H]3C : > 25 µM

response.value for OC12c3ccccc3C1CCCCCCCCCC21OCCO1 (stereo not given) (field: TGI) = > 100 µM

Reported TGI of CC(C(=O)c1ccncc1)c1ccccn1 (stereo not given) : > 100 µM

// TGI lookup, compound = O=[N+]([O-])c1cc(F)ccc1S(=O)(=O)c1ccccc1 , result: > 10 µM
